Cited source: the supplement of paper PMC9170038

Test system: MS2 coat protein
Assay: apparent KD of MS2 coat protein; higher = weaker reporter binding
Conditions: Eterna round: R107; input ligand: arginine 13.2 mM
Below, each entry is listed with its recorded apparent KD of MS2 coat protein.
Respond numerically; units are nM and should not be typed.

| sequence entry | tgt | apparent KD of MS2 coat protein / nM |
| --- | --- | --- |
| UGUGUGUGACCAGGAAAUGGUCACACACAGCGAGGACCGGUACGGCCGCCACUCGGCCGUACAUGAGGAUCACCCAUGUCGGGUA [#1 Same State - Tryptophan A Attempt #9 (HarryS)] | MS2 coat protein | 99.6 |

Input line: Short answer please: apparent KD of MS2 coat protein, MS2 coat protein, entry GAGGGUGAAUCUCUGGUCCGUUUGACGGAUACCAGCGAGAGGUAUCGCCCUUGGCAGCCGACGACAUGAGGAUCACCCAUGUUAA [#08 Exclusion-TheophyllineA]
Output line: 18.9

Input line: Short answer please: apparent KD of MS2 coat protein, MS2 coat protein, entry GGGCCCGGGCGCGAGCCCGGGCCCAUUGAUACCAGUGAUAGAGAGCGCCCUUGGCAGCGAAUCCUAACAUGAGGAUCACCCAUGU [5.K]
Output line: 37.5
